# target or system: T1, hu-IL-7Rγc subunit (human), P31785
# T1 chain: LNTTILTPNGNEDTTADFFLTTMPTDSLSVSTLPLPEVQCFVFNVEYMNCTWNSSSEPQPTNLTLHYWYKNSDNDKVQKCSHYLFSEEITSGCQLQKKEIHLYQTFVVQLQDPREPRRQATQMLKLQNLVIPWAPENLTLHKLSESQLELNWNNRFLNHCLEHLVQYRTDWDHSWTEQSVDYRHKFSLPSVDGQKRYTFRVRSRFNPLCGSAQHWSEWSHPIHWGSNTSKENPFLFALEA
# method description: not stated; binding to the specific binding site on the IL-7Rγc subunit
measurement kind: IC50

stdin: Could you share which IC50 value was measured for KVCEMWGGVLLCWN (modifications not checked) [SEQ ID NO 461] ?
stdout: < 10 µM
